Origin of the recorded values: ChEMBL document CHEMBL1201862

system: DU-145; test: NCI tumour cell line growth inhibition, 48 h
The source made the active and inactive calls. Rule as the data show it: active = GI50 up to about 1.1 µM and inactive = higher.
measurement.label: GI50

Worked cases, answers included:
INSERT INTO assay_data (molecule, result) VALUES
  ('COC1CC(OC2C(C)OC(OC3C(C)OC(OC4C(C)OC(O[C@H]5CC[C@@]6(C)C(=CC[C@]7(O)[C@@H]6C[C@@H](OC(=O)/C=C(\C)C(C)C)[C@@]6(C)[C@]7(O)CC[C@@]6(O)C(C)=O)C5)CC4OC)CC3OC)CC2OC)OC(C)C1O (some centres undefined)', '> 12.5 µM (inactive)'),
  ('COc1cccc(N2C(=O)CS(=O)(=O)C2c2cccc(Oc3ccccc3)c2)c1 (centres undefined)', '38.5 µM (inactive)'),
  ('CCOP(=O)(OCC)C(F)(F)CC1CCCCC1', '> 10 µM (inactive)'),
  ('CCO/C=N\C1=C(C#N)SC2=N/C(=C\c3ccc(OC)cc3)C(=O)N21', '> 100 µM (inactive)'),
  ('NC(Cc1ccc(N(CCCl)CCCl)cc1)C(=O)NC(CCC(=O)O)C(=O)O (centres undefined)', '> 100 µM (inactive)'),
  ('COc1ccc(C(F)(F)F)cc1NC(=O)O/N=C(/Cl)C(C)C', '19.2 µM (inactive)'),
  ('COC(=O)C(Cc1c(C2Nc3ccccc3C2CC(NC(C)=O)C(=O)OC)[nH]c2ccccc12)NC(C)=O (centres undefined)', '> 100 µM (inactive)'),
  ('CCOC(=O)Cn1c(=O)ccn(COCCO)c1=O', '> 100 µM (inactive)'),
  ('COc1ccc(C2SCC(=O)N2NC2=NC(=O)CC(=O)N2)cc1 (centres undefined)', '> 100 µM (inactive)'),
  ('CCC1C(c2cc(OC)c(OC)c(OC)c2)c2cc3c(cc2OC1N1CCCC1)OCO3 (centres undefined)', '2.37 µM (inactive)');

Now take the following molecule into account.
Dear colleague, I am looking for the recorded GI50 of the following molecule: Clc1ccccc1NN(Cc1ccccn1)c1ccccc1Cl
35.5 µM (inactive)
